Assay: log P by HPLC on reversed phase columns (Method L0; [a] acidic, [b] neutral range)
Mark rule met only for chromatographic logP values smaller than 4; exact matches and larger values are rule not met.

Cc1nn2c(C(C)C)c(C(=O)N[C@H]3CCOc4ccccc43)cnc2c1-c1ccc(F)cc1Cl [Example 218] : rule not met
CCS(=O)(=O)c1nn2c(C(C)C)c(C(=O)N[C@H]3CCOc4ccccc43)cnc2c1-c1cc(Cl)cc(Cl)c1 [Example 212] : rule not met
Cc1nn2c(C)c(C(=O)N[C@H]3CCc4ccccc43)cnc2c1-c1cccc(Cl)c1 [Example 59] : rule not met

Query: Take the compound CCN(CC)c1cccc(-c2c(C)nn3c(C(C)C)c(C(=O)N[C@H]4CCc5ccccc54)cnc23)c1 [Example 379] and say whether its chromatographic logP is less than 4.
Reply: rule met

Query: Just wondering, is chromatographic logP of CSc1nn2c(C(C)C)c(C(=O)N[C@H]3CCc4ccccc43)cnc2c1-c1cc(Cl)cc(Cl)c1 [Example 203] below 4?
Reply: rule not met

====

The entries below come with measured EC50 values attached.
Biological target: C. elegans Slo-1a (Caenorhabditis elegans)
Assay: In vitro assay 1: C. elegans Slo-1a, action at a recombinant C. elegans CHO cell line (membrane potential measurement)
Give the value, in units of nM, as a plain number.

// known answers, use as guide
CCOCc1cccc(-c2c(C)nn3c(C(C)C)c(C(=O)N[C@H]4CCc5ccccc54)cnc23)c1 [Example 370] : 15.8
Cc1nn2c(C(C)C)c(C(=O)N[C@H]3CCc4ccccc43)cnc2c1-c1cccc(N2CCOCC2)c1 [Example 316] : 158
Cc1nn2c(C3CC3)c(C(=O)N[C@H]3CCc4ccccc43)cnc2c1-c1c(F)cccc1Cl [Example 442] : 2
Cc1nn2c(C3CC3)c(C(=O)N[C@H]3CCOc4ccccc43)cnc2c1-c1ccccc1F [Example 450] : 3.16
Cc1nn2c(C(C)C)c(C(=O)N[C@H]3CCOc4ccccc43)cnc2c1-c1ccc2c(c1F)OCO2 [Example 245] : 20
Cc1nn2c(C3CC3)c(C(=O)N[C@H]3CCc4ccccc43)cnc2c1-c1cccc(F)c1F [Example 424] : 2.51
Cc1nn2c(C3CC3)c(C(=O)N[C@H]3CCc4ccccc43)cnc2c1-c1cc(Cl)cc(C(F)(F)F)c1 [Example 425] : 79.4
Cc1nn2c(C(C)C)c(C(=O)N[C@H]3CCOc4ccccc43)cnc2c1-c1ccccc1 [Example 176] : 12.6
Cc1nn2c(C(C)C)c(C(=O)N[C@H]3CCc4ccccc43)cnc2c1-c1cccc(S(C)(=O)=O)c1 [Example 288] : 200
Cc1nn2c(C(C)C)c(C(=O)N[C@H]3CCc4ccccc43)cnc2c1-c1cccc(Cl)c1 [Example 287] : 15.8

Measured EC50 for this entry CSc1nn2c(C(C)C)c(C(=O)N[C@H]3CCOc4ccccc43)cnc2c1-c1cc(Cl)cc(Cl)c1 [Example 202] on C. elegans Slo-1a (Caenorhabditis elegans): 25.1

The compound COc1ccc(F)c(-c2c(C)nn3c(C(C)C)c(C(=O)N[C@H]4CCOc5ccccc54)cnc23)c1F [Example 232] , when measured on C. elegans Slo-1a (Caenorhabditis elegans), yielded EC50 of 5.01

====

log10 of EC50 reference
Target: C. elegans Slo-1a (Caenorhabditis elegans, UniProt Q95V25)
Sequence (Q95V25 whole entry): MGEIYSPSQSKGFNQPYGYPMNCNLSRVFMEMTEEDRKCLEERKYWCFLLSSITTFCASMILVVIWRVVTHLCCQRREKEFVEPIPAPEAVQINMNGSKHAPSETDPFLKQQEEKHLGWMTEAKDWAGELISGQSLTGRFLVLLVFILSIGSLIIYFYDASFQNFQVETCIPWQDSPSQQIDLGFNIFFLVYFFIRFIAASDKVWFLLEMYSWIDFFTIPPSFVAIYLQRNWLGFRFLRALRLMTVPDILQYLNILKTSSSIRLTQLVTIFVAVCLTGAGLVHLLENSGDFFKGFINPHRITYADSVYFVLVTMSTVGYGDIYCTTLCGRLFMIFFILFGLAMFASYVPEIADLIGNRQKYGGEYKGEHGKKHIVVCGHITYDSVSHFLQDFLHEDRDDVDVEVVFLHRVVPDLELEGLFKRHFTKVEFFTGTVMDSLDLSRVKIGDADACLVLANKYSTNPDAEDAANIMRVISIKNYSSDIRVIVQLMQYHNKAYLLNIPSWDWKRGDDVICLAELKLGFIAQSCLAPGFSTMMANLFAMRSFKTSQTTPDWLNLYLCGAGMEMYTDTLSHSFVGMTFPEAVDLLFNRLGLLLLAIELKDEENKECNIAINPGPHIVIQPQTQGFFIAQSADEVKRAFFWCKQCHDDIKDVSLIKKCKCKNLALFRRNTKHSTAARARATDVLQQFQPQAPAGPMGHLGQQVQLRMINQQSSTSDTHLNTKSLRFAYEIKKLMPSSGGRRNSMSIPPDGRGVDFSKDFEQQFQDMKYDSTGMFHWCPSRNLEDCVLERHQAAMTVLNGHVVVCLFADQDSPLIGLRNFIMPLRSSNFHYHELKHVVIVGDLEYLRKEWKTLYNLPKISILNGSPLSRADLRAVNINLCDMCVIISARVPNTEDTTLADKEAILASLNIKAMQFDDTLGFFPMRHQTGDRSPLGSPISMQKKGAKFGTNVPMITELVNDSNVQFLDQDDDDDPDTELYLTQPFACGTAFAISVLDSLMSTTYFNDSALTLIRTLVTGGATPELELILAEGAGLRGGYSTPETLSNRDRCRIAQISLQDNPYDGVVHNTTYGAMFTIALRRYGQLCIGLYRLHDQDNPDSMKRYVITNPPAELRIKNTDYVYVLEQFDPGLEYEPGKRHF
Assay: In vitro assay 1: C. elegans Slo-1a, action at a recombinant C. elegans CHO cell line (membrane potential measurement)
Each number you see is log10 of EC50, and the unit inside the log is µM.

Cc1nn2c(C(C)C)c(C(=O)N[C@H]3CCOc4ccccc43)cnc2c1-c1c(F)cccc1F : -2.40
Cc1nn2c(C(C)C)c(C(=O)N[C@H]3CCc4ccccc43)cnc2c1-c1ccc(F)c(C(F)(F)F)c1 : -1.30
Cc1nn2c(C(C)C)c(C(=O)N[C@H]3CCCc4ccccc43)cnc2c1-c1cccc(C(F)(F)F)c1 : -1.30

# ---- query compound ----
Observed log10 of EC50, C. elegans Slo-1a (Caenorhabditis elegans, UniProt Q95V25), CCOc1cccc(-c2c(C)nn3c(C(C)C)c(C(=O)N[C@H]4CCc5ccccc54)cnc23)c1 : -1.90
